Values were extracted from patent US10654884B2.

What pIC50 was measured for each of the following?
- Assay System: human CD73 (Homo sapiens, UniProt P21589)
- Construct: purchased R&D Systems 5795-EN-010
- Sequence (P21589 27-549): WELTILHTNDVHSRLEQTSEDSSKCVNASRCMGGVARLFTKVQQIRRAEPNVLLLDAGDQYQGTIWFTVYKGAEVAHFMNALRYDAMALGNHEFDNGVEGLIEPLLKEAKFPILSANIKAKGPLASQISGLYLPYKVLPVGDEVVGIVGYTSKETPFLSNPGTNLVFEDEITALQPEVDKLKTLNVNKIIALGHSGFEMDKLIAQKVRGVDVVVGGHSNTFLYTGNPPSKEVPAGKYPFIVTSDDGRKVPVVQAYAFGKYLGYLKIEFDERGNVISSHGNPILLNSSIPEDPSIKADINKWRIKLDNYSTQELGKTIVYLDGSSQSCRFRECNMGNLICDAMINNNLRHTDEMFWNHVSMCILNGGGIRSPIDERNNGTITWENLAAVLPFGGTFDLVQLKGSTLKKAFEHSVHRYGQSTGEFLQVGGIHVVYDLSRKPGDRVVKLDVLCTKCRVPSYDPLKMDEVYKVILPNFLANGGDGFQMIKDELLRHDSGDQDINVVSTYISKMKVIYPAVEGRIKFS
- Procedure Summary: Inhibition of 5′-Nucleotidase Activity of CD73 (Assay 1)
- Type: biochemical
- Test Settings: human CD73 4 ng/ml, 50 μM CMP, 20 min at RT, malachite green readout; read-out: Assay 1: IC50, inhibition of 5′-nucleotidase activity of CD73
pIC50: −log10 of the molar value.

Here are 6 molecules together with their reported answers.
molecule="CC(C)(C)OC(=O)[C@H](OC[C@H]1O[C@@H](n2cnc3c(N)nc(CN)nc32)[C@H](O)[C@@H]1O)P(=O)(O)O (single isomer, unassigned)" measured_result="< 6.00"
molecule="CC(C)(C)NC(=O)[C@H](OC[C@H]1O[C@@H](n2cnc3c(N)nc(Cl)nc32)[C@H](O)[C@@H]1O)P(=O)(O)O (single isomer, unassigned)" measured_result="> 7.00"
molecule="CCNC(=O)[C@H](OC[C@H]1O[C@@H](n2cnc3c(NCC)nc(Cl)nc32)[C@H](O)[C@@H]1O)P(=O)(O)O (single isomer, unassigned)" measured_result="> 7.00"
molecule="CCOC(=O)[C@H](OC[C@H]1O[C@@H](n2cnc3c(N)nc(CC(C)C)nc32)[C@H](O)[C@@H]1O)P(=O)(O)O (single isomer, unassigned)" measured_result="6.00 to 7.00"
molecule="CCOC(=O)[C@H](OC[C@H]1O[C@@H](n2cnc3c(N)nc([C@H]4NCCO4)nc32)[C@H](O)[C@@H]1O)P(=O)(O)O (single isomer, unassigned) [Example 51a]" measured_result="6.00 to 7.00"
molecule="CCOC(=O)[C@](C)(OC[C@H]1O[C@@H](n2cnc3c(N)nc(Cl)nc32)[C@H](O)[C@@H]1O)P(=O)(O)O (single isomer, unassigned)" measured_result="> 7.00"

Here are 4 molecules. What values of pIC50 were reported for them?
1. CCN(CC)C(=O)[C@H](OC[C@H]1O[C@@H](n2cnc3c(N)nc(Cl)nc32)[C@H](O)[C@@H]1O)P(=O)(O)O (single isomer, unassigned) [Example 82a]
2. CCOC(=O)[C@H](OC[C@H]1O[C@@H](n2cnc3c(NC(=O)c4ccccc4)nc(Cl)nc32)[C@H](O)[C@@H]1O)P(=O)(O)O (single isomer, unassigned)
3. Nc1nc(Cl)nc2c1ncn2[C@@H]1O[C@H](COC(CC2CC2)(C(=O)O)C(=O)O)[C@@H](O)[C@H]1O
4. CCOC(=O)[C@@H](OC[C@H]1O[C@@H](n2cnc3c(NC)nc(Cl)nc32)[C@H](O)[C@@H]1O)P(=O)(O)O (single isomer, unassigned) [Example 23a]

1. > 7.00
2. > 7.00
3. > 7.00
4. 6.00 to 7.00
